System: HIV-1 pseudovirus Ba-L
Test: HIV single cycle pseudovirus assay in GHOST cells
Format: cell-based
Conditions: read-out: antiviral activity EC50
measured-property: pEC50
Give bare numbers, as −log10 of the molar value.

Query: Looking for the measured pEC50 of Cc1cc(C)c(Nc2ccnc(Nc3ccc(C#N)cc3)n2)c(C)c1 , can you help?
Reply: 8.82

###

Test system: HIV-1 pseudovirus MJ4
Assay: HIV single cycle pseudovirus assay in GHOST cells
Type: cell-based
Details: read-out: antiviral activity EC50
measured-property: EC50 (nM)
Numbers only, in nM.

Query: Can you share its EC50? I mean this molecule: Cc1cc(C)c(Nc2ccnc(Nc3ccc(C#N)cc3)n2)c(C)c1
Reply: 1.5

###

Test system: HIV-1 pseudovirus VI829
Assay: HIV single cycle pseudovirus assay in GHOST cells
Assay type: cell-based
Details: read-out: antiviral activity EC50
measured-property: EC50 (nM)
Answers are plain numbers, in nM.

Query: Need EC50, item Cc1cc(C)c(Nc2ccnc(Nc3ccc(C#N)cc3)n2)c(C)c1
Reply: 1.2
